melting point by entry:

Would you please look over these solved cases?
O=C1NCC(=O)c2[nH]cnc2N1: > 300 °C
O=c1ccc2c(CO)nccc2[nH]1: 294 to 300 °C
CCc1oc(C)cc(=O)c1C(=O)Nc1ccccc1: 154 to 156 °C
COC(=O)c1cc(-c2ccc(OC)c(F)c2)nn(CC=Cc2ccc(Cl)cc2)c1=O: 131 to 132 °C
COc1ccc(-c2cc(F)c(F)cc2-c2ccc(S(N)(=O)=O)cc2)cc1C: 120 to 122 °C
COc1cc(OC)c(C(=O)c2cc(Cl)ccc2NC(C)=O)c(OC)c1: 159 to 160 °C
COC(=O)C1=C(N)NC(C)=C([N+](=O)[O-])C1c1ccccc1S(=O)(=O)CCCCN1CCN(c2ccccc2OC)CC1 (stereo not given): 145 to 147 °C
Nc1cc(C(=O)O)cc(S(N)(=O)=O)c1Nc1ccccc1: 251 °C

Okay, next one:
What melting point value was documented for this compound, O=C(O)Cc1csc(-c2cc3cccc(NS(=O)(=O)c4cccs4)c3[nH]2)n1 ?
228 to 229 °C

====

Experimental Endpoint: melting point

Would you please look over these solved cases?
CSCCCCCC=C(NC(=O)C1CC1(C)C)C(=O)O (stereo unspecified): 82 to 84 °C
CC(=C1SC(=O)NC1=O)c1ccc(OCCCOc2c(-c3ccc(F)cc3)n(C)c3ccccc3c2=O)cc1: 262 to 264 °C
Cc1ccc(-c2n[nH]cc2-c2ccnc(Cl)n2)cc1: 194 to 197 °C
COCCOCCOc1ccc2c(c1)S(=O)(=O)N(Cc1ccccc1)C2=O: 86 to 88 °C
O=C(c1cccs1)c1cnn2c(-c3cccc(NCCc4ccccc4)c3)ccnc12: 118 to 120 °C

What melting point value was documented for this compound, CCOC(=O)C=CC(C)=CC=O ?
48 to 49 °C

What melting point value was documented for this compound, O=C1NC(=O)C(Sc2ccc(Br)cc2)S1 (stereo unspecified) ?
115 to 117 °C

What melting point value was documented for this compound, OCC1Cc2cc(Cl)cc(C3CCCCC3)c2O1 (stereo unspecified) ?
67 to 69 °C

What melting point value was documented for this compound, O=C1c2ccccc2S(=O)(=O)N1CF ?
96 to 98 °C

What melting point value was documented for this compound, O=C(Cc1ccc(Cl)c(Cl)c1)N1C(=O)OC[C@@H]1Cc1ccccc1 ?
70.5 to 71.5 °C

What melting point value was documented for this compound, CCCCCCCCCN(O)C(=O)N(C)C ?
39 to 40 °C

====

Experimental Endpoint: melting point

CCOP(=O)(OCC)c1cccc2c(P(=O)(OCC)OCC)cccc12: 169 to 171 °C
O=C(O)CCc1oc(N2CCN(c3ccccc3)CC2)nc1-c1ccc(Cl)cc1: 177 to 178 °C

What melting point value was documented for this compound, CCCN1CCCC1CNC(=O)c1cc(S(N)(=O)=O)cc2c1OC(C)C2 (stereo not given) ?
177 to 180 °C

What melting point value was documented for this compound, CNC(=O)Oc1cccc(C2CCCN2Cc2ccncc2)c1 (stereo not given) ?
92 to 105 °C

What melting point value was documented for this compound, CC(=O)Oc1c(C2CCN(CCCCNC(=O)c3ccc(NC(=O)c4ccc(Cl)cc4)cc3)CC2)ccc2ccccc12 ?
240 °C

What melting point value was documented for this compound, c1ccc(COc2ccc(-c3cscn3)cc2)cc1 ?
109 to 110 °C

What melting point value was documented for this compound, O=C(C=Cc1ccc(Cl)cc1)C1CC1 ?
61 °C

What melting point value was documented for this compound, Cc1cc(O)c(C)c2sc(N)nc12 ?
199 to 201 °C

What melting point value was documented for this compound, O=C(OCCOc1ccccc1)c1sc(Cl)nc1C(F)(F)F ?
70 to 72 °C

What melting point value was documented for this compound, COc1ccc(C(Cl)=CC(=O)C(F)(F)C(F)(F)F)cc1OC ?
67 °C
